Consider the following substances and their measured Levels of IL-6 readings.
test system: human peripheral blood mononuclear cells (PBMCs); test: Human PBMC activation assay, cytokine levels (IL-10, IL-6, MCP-1, TNF-α) in supernatant after 24 hours (Example 9); conditions: human PBMC supernatant after 24 hours; 0.0128 μM oligonucleotide
Please state the figure in pg/mL; there is no need to write the unit.

>  <substance>
790615 (CCAATGAGAATGCTTC; 3-10-3 cEt gapmer, further chemistry not given here) [compound 790615]

>  <study-system>
human peripheral blood mononuclear cells (PBMCs)

>  <measured-parameter>
Levels of IL-6

>  <test-result>
3.7

$$$$
>  <substance>
829994 (GGAGGCAGGGCCGCGA; 3-10-3 cEt gapmer, further chemistry not given here) [compound 829994]

>  <study-system>
human peripheral blood mononuclear cells (PBMCs)

>  <measured-parameter>
Levels of IL-6

>  <test-result>
4.1

$$$$
>  <substance>
830037 (antisense CTATTGGCTGATCTGG; 3-10-3 cEt gapmer, further chemistry not given here) [compound 830037]

>  <study-system>
human peripheral blood mononuclear cells (PBMCs)

>  <measured-parameter>
Levels of IL-6

>  <test-result>
3.8

$$$$

Now take the following substance into account.
Enquiry: Given the entry 830121 (AGAATCAAGCCCTGGC; 3-10-3 cEt gapmer, further chemistry not given here) [compound 830121] , report its measured Levels of IL-6.
Return: 4.1

Provenance of the data: patent US10517889B2
